test system: SK-MEL-28; experiment: NCI tumour cell line growth inhibition, 48 h
Calls of active or inactive are those of the source. Cut-off read from the data, not from the text of the source: active = GI50 up to about 1.1 µM and inactive = higher.
Result category, one only: t for active, f for inactive

Recorded results for 6 molecules are shown here.
                                   molecule  answer_label
0    Nc1c(F)c(F)c2c(c1F)N(CCCCCl)c1ccccc1S2             f
1  C#CC(O)/C=C/CCCCCCC#CC/C=C\CC#CCCCCCCCCC(O)C#C (stereo not drawn)             f
2  CCC(C#N)(c1ccccc1)N(CCc1ccccc1)C(=O)c1ccccc1 (stereo not drawn)             f
3                    CC(=O)NCCCCNCCCNC(C)=O             f
4  COc1cc2ccnc(-c3c4ccccc4c(N)c4c(OC)c(OC)ccc34)c2cc1OC             f
5                         CN1Nc2ccccc2CC1=O             f

Q) Which result was noted for this molecule in the test: CC(Oc1ccccc1)C(=O)NN (stereo not drawn)
A) f

Q) Please share the test call associated with `COc1cccc2c1C(=O)c1ccc3cc(CCl)cc(O)c3c1C2=O` .
A) t

---

test system: K562; experiment: NCI tumour cell line growth inhibition, 48 h
Activity calls are given as the source filed them. Rule as the data show it: active = GI50 up to about 1.1 µM and inactive = higher.
Hello, when you answer, please use one of the following outcomes: 1.0 for active, 0.0 for inactive

Q) Tell me the assay call for `C/C(=N\NC(=O)CC(=O)Nc1ccc(C)cc1)c1cc2ccccc2oc1=O` please.
A) 0.0

---

Consider the following molecules; for each one, report its GI50.
test system: UO-31; experiment: NCI tumour cell line growth inhibition, 48 h
Activity calls are given as the source filed them. Cut-off read from the data, not from the text of the source: active = GI50 up to about 1.1 µM and inactive = higher.

molecule	GI50
CCC(C)C1=C(O)[N+]2([O-])Oc3ccc(-c4c(O)c(O)c(-c5ccc(OC(C)=O)cc5)c(OC(C)=O)c4OC(C)=O)cc3OC2(C(C)CC)C(=O)N1O (centres undefined)	> 50 µM (inactive)
O=C(NO)c1ccc(O)c(O)c1	> 100 µM (inactive)
COc1ccc(-c2nc(N(C)C)c3ccccc3n2)cc1	3.36 µM (inactive)
CC1(C)N=C(N)N=C(N)N1c1cccc(C(=O)Nc2ccc(S(=O)(=O)F)cc2)c1	> 100 µM (inactive)

The following molecules each have a reported value; give each one's GI50.
1. CC1=NN(c2nc(N)nc(/C(C#N)=C/c3cccn3-c3cc(Cl)cc(Cl)c3)n2)C(C)(C)C1
2. COc1cc(C2SCC(=O)N2c2ccc(Cl)cc2)cc(I)c1O (centres undefined)
3. O=C(COc1ccc(Br)cc1Br)N1N=C(c2ccc([N+](=O)[O-])o2)CC1(O)c1ccccc1 (centres undefined)
4. CC1C(=O)O[C@H]2C1CC[C@@]1(C)[C@H](O)CC[C@@]13C[C@]2(O)OO3 (some centres undefined)

A)
["> 100 µM (inactive)", "> 100 µM (inactive)", "5.36 µM (inactive)", "> 100 µM (inactive)"]

Q) Give reported GI50 value for O=C1C(Cl)C2(CC(/C=C/c3ccccc3O)=NN2c2cccc(S(=O)(=O)O)c2)N1c1nc2ccccc2s1 (centres undefined)
A) 13.1 µM (inactive)

---

system: NCI-H460; assay: NCI tumour cell line growth inhibition, 48 h
Activity calls are given as the source filed them. Cut-off read from the data, not from the text of the source: active = GI50 up to about 1.1 µM and inactive = higher.
Reply using exactly one outcome from true (1) = active, false (0) = inactive

molecule	answer-label
CCOC(=O)N1CCC2(CC1)C[C@@](C(C)=O)(c1ccccc1)C(C)O2 (stereo not given in full)	false (0)
O=C1/C(=C/c2cccc(Br)c2)Cc2ccccc21	false (0)
COc1cc(S(=O)(=O)Nc2nc(-c3ccc(N4C(=O)C(CC(=O)O)SC4c4cccs4)cc3)cs2)ccc1Cl (stereo not given)	false (0)

Kindly review the next molecule as well.
Q) Test call, this molecule: CC1(C)CCCCCCC2CC2CCCCCC(C)(C)C1=O (stereo not given)
A) false (0)
